experiment summary: DTG steady-state plasma pharmacokinetics, interaction with EFV
Format: in vivo, human
particulars: both sexes, human, plasma, oral; DTG 50 mg + EFV 600 mg q24h for 14 days, fasting, n=12, geometric mean (CV%); read-out: C τ
readout type: concentration at 24 h (ng/mL)
Report the value in ng/mL with no unit label.

Exam item: Entry C[C@@H]1CCO[C@H]2Cn3cc(C(=O)NCc4ccc(F)cc4F)c(=O)c(O)c3C(=O)N12 has what concentration at 24 h?
Marked response: 220

###

experiment summary: EFV plasma pharmacokinetics when co-administered with DTG, by CYP2B6 genotype
particulars: human, in vivo, t½, EFV with DTG, CYP2B6*1/*1 or *1/*6 subjects n=6, geometric mean (CV%)
Description: This was a phase I, open-label, single-sequence, two-period, steady-state study. Subjects received DTG at a dose of 50 mg (two 25 mg tablets) every 24 hours (q24h) for 5 days (period 1), and then the combination of morning DTG 50 mg and evening EFV 600 mg q24h was given for 14 days (period 2). […] The metabolic profile of DTG was evaluated in plasma and urine using pooled samples for each subject to assist in establishing the mechanism of any potential drug interaction (see Supplementary Material). […]
readout type: half-life
A complete answer gives the number and then names the unit.

Exam item: Need half-life, item O=C1Nc2ccc(Cl)cc2[C@@](C#CC2CC2)(C(F)(F)F)O1
Marked response: 15.6 h

###

experiment summary: EFV plasma pharmacokinetics when co-administered with DTG, by CYP2B6 genotype
particulars: human, in vivo, t½, EFV with DTG, CYP2B6*6/*6 subjects n=3, geometric mean (CV%)
readout type: half-life
Could you give the number and then its unit, please?

Exam item: Requested read-out: half-life. Entry: O=C1Nc2ccc(Cl)cc2[C@@](C#CC2CC2)(C(F)(F)F)O1
Marked response: 39.1 h

###

experiment summary: DTG steady-state plasma pharmacokinetics, interaction with TPV/r
particulars: both, human, in vivo, 50 mg
readout type: Tmax (h)
Supply the numeric figure in h, leaving out any unit text.

Exam item: Suppose we examine the compound C[C@@H]1CCO[C@H]2Cn3cc(C(=O)NCc4ccc(F)cc4F)c(=O)c(O)c3C(=O)N12 ; what Tmax value has been reported?
Marked response: 3

###

experiment summary: EFV plasma pharmacokinetics when co-administered with DTG, by CYP2B6 genotype
particulars: human, in vivo, AUC(0–τ), EFV with DTG, CYP2B6*1/*1 or *1/*6 subjects n=6, geometric mean (CV%)
readout type: AUC (ng·h/mL)
Answer with a number only, understood to be in ng·h/mL.

Exam item: // AUC lookup, key: O=C1Nc2ccc(Cl)cc2[C@@](C#CC2CC2)(C(F)(F)F)O1
Marked response: 55700

###

experiment summary: EFV plasma pharmacokinetics when co-administered with DTG, by CYP2B6 genotype
particulars: human, in vivo, AUC(0–τ), EFV with DTG, CYP2B6*6/*6 subjects n=3, geometric mean (CV%)
Method: This was a phase I, open-label, single-sequence, two-period, steady-state study. Subjects received DTG at a dose of 50 mg (two 25 mg tablets) every 24 hours (q24h) for 5 days (period 1), and then the combination of morning DTG 50 mg and evening EFV 600 mg q24h was given for 14 days (period 2). […] The metabolic profile of DTG was evaluated in plasma and urine using pooled samples for each subject to assist in establishing the mechanism of any potential drug interaction (see Supplementary Material). […]
readout type: AUC (µg·h/mL)
Give just the number in µg·h/mL; leave the unit off.

Exam item: # query: AUC of entry O=C1Nc2ccc(Cl)cc2[C@@](C#CC2CC2)(C(F)(F)F)O1
Marked response: 174

###

experiment summary: DTG steady-state plasma pharmacokinetics, interaction with EFV
Assay type: in vivo, human
particulars: both sexes, human, oral; DTG 50 mg q24h alone for 5 days, fasting, healthy subjects n=12, plasma, geometric mean (CV%)
readout type: Cmax (ng/mL)
Numbers only here, please. The scale is ng/mL.

Exam item: Which Cmax is reported for this compound? C[C@@H]1CCO[C@H]2Cn3cc(C(=O)NCc4ccc(F)cc4F)c(=O)c(O)c3C(=O)N12
Marked response: 3080

###

experiment summary: DTG steady-state plasma pharmacokinetics, interaction with TPV/r
particulars: both, human, plasma, oral, 50 mg
readout type: concentration at 24 h (ng/mL)
Express the result in ng/mL but write the number alone.

Exam item: Report concentration at 24 h for C[C@@H]1CCO[C@H]2Cn3cc(C(=O)NCc4ccc(F)cc4F)c(=O)c(O)c3C(=O)N12 [DTG, Dolutegravir] please.
Marked response: 1480

###

experiment summary: DTG steady-state plasma pharmacokinetics, interaction with EFV
Assay type: in vivo, human
particulars: both sexes, human, plasma, oral; DTG 50 mg q24h alone for 5 days, fasting, n=12, median (range)
readout type: Tmax (h)
// note: answer is a bare numeric in h

Exam item: Given C[C@@H]1CCO[C@H]2Cn3cc(C(=O)NCc4ccc(F)cc4F)c(=O)c(O)c3C(=O)N12 , state its recorded Tmax.
Marked response: 2

###

experiment summary: EFV plasma pharmacokinetics when co-administered with DTG, by CYP2B6 genotype
particulars: human, in vivo, AUC(0–τ), EFV with DTG, all subjects n=12, geometric mean (CV%)
readout type: AUC (ng·h/mL)
Note: unit ng·h/mL is implicit; provide only the numeric part.

Exam item: Any idea what its AUC is? The molecule is O=C1Nc2ccc(Cl)cc2[C@@](C#CC2CC2)(C(F)(F)F)O1
Marked response: 84200

###

experiment summary: DTG steady-state plasma pharmacokinetics, interaction with TPV/r
particulars: both, human, plasma, oral, 50 mg
readout type: Cmax (ng/mL)
# value in ng/mL; strip the unit string

Exam item: Item C[C@@H]1CCO[C@H]2Cn3cc(C(=O)NCc4ccc(F)cc4F)c(=O)c(O)c3C(=O)N12 has what recorded Cmax?
Marked response: 4530

###

experiment summary: DTG steady-state plasma pharmacokinetics, interaction with EFV
Type: in vivo, human
particulars: both sexes, human, plasma, oral; DTG 50 mg + EFV 600 mg q24h for 14 days, fasting, n=12, geometric mean (CV%); read-out: AUC(0–τ)
readout type: AUC (ng·h/mL)
Report only the number, with the unit ng·h/mL understood.

Exam item: # lookup: AUC of C[C@@H]1CCO[C@H]2Cn3cc(C(=O)NCc4ccc(F)cc4F)c(=O)c(O)c3C(=O)N12
Marked response: 18200

###

experiment summary: DTG steady-state plasma pharmacokinetics, interaction with EFV
Assay type: in vivo, human
particulars: both sexes, human, plasma, oral; DTG 50 mg + EFV 600 mg q24h for 14 days, fasting, n=12, median (range)
readout type: Tmax (h)
Number only, in h; omit the unit.

Exam item: # lookup: Tmax of C[C@@H]1CCO[C@H]2Cn3cc(C(=O)NCc4ccc(F)cc4F)c(=O)c(O)c3C(=O)N12 [DTG, Dolutegravir]
Marked response: 1

###

experiment summary: DTG steady-state plasma pharmacokinetics, interaction with EFV
Type: in vivo, human
particulars: both sexes, human, plasma, oral; DTG 50 mg q24h alone for 5 days, fasting, n=12, geometric mean (CV%); read-out: AUC(0–τ)
readout type: AUC

Exam item: Query (compound): C[C@@H]1CCO[C@H]2Cn3cc(C(=O)NCc4ccc(F)cc4F)c(=O)c(O)c3C(=O)N12 ; field requested: AUC
Marked response: 42300 ng·h/mL

###

experiment summary: EFV plasma pharmacokinetics when co-administered with DTG, by CYP2B6 genotype
particulars: human, in vivo, T max, EFV with DTG, CYP2B6*6/*6 subjects n=3, median (range)
Method: This was a phase I, open-label, single-sequence, two-period, steady-state study. Subjects received DTG at a dose of 50 mg (two 25 mg tablets) every 24 hours (q24h) for 5 days (period 1), and then the combination of morning DTG 50 mg and evening EFV 600 mg q24h was given for 14 days (period 2). […] The metabolic profile of DTG was evaluated in plasma and urine using pooled samples for each subject to assist in establishing the mechanism of any potential drug interaction (see Supplementary Material). […]
readout type: Tmax
Please answer in the form of a number followed by its unit of measurement.

Exam item: Dear colleague, I am looking for the recorded Tmax of the following compound: O=C1Nc2ccc(Cl)cc2[C@@](C#CC2CC2)(C(F)(F)F)O1 [EFV, efavirenz]
Marked response: 2 h

###

experiment summary: EFV plasma pharmacokinetics when co-administered with DTG, by CYP2B6 genotype
particulars: human, in vivo, C τ, EFV with DTG, all subjects n=12, geometric mean (CV%)
readout type: concentration at 24 h (ng/mL)
Answer in ng/mL, number only, no unit symbol.

Exam item: Which concentration at 24 h value belongs to O=C1Nc2ccc(Cl)cc2[C@@](C#CC2CC2)(C(F)(F)F)O1 [EFV, efavirenz] ?
Marked response: 2410

###

experiment summary: EFV plasma pharmacokinetics when co-administered with DTG, by CYP2B6 genotype
particulars: human, in vivo, t½, EFV with DTG, all subjects n=12, geometric mean (CV%)
readout type: half-life (h)
// return numeric value only (unit: h, not printed)

Exam item: # query: half-life of entry O=C1Nc2ccc(Cl)cc2[C@@](C#CC2CC2)(C(F)(F)F)O1
Marked response: 22.2

Data credit: paper PMC4158172
